- study system: Alpha-bungarotoxin (Bungarus multicinctus) (UniProt P60615)
- Sequence (P60615 whole entry, looked up): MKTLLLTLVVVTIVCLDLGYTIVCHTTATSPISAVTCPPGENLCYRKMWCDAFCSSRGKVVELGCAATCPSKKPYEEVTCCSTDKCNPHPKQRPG
- test protocol: alpha-bungarotoxin binders on microarray, profiling panel, artefact control for SMM control protein annotation, biochemical, small-molecule microarray, Alexa647 label, 635/667 nm fluorescence (AID 1117)
- recorded conditions: alpha-BTX-A647 binding fluorescence, higher = more signal
Kindly return MET if reported composite z-score is no lower than 0.6; return NOT MET if it is lower.

Record excerpt, results attached:
molecule	group
O=C1CCCC=C1C(O)CCOCc1ccccc1 (centres undefined)	NOT MET
CN(C)c1ccc(C(O)C2C=CC3C(=O)N(c4ccccc4)C(=O)C3N2Nc2ccccc2F)cc1 (centres undefined)	MET
CC(=O)OC[C@H]1O[C@@H](ON=C(C)CCN2CCc3nc(-c4ccccc4)c(-c4ccccc4)cc3C2)[C@H](OC(C)=O)[C@@H](OC(C)=O)[C@@H]1OC(C)=O	MET
CC(C)(C)N1C(=O)[C@H]2[C@H]3[C@H](O)[C@H](O)CC(=NO[C@@H]4O[C@H](CO)[C@@H](O)[C@H](O)[C@H]4O)[C@@H]3CC[C@H]2C1=O	MET
COc1ccccc1CN1C(=O)c2ccccc2[C@@]2(Cc3ccccc3N(C(C)C)C2=O)[C@@H]1c1ccc(CO)cc1	MET

API: the following record is the query input.
query: Hello, I need to know if O=C1O[C@@H](c2ccccc2)[C@@H](c2ccccc2)N2[C@@H](c3ccc(OCCO)cc3)[C@]3(C(=O)Nc4ccc(C#CCCO)cc43)[C@@H](C(=O)N3CCCCCCC3)[C@H]12 has measured composite z-score not below 0.6. Thanks!
result: MET
